Hello, the source for this data is ChEMBL document CHEMBL4118113, in case you need it.

# assay.explanation: Lipophilicity, log D of the compound
# Type: physicochemical
# measurement.parameters: octanol/water
readout.kind: logD
Give bare numbers.

## Input Data request, read-out logD, for `C[C@H]1Oc2cc(cnc2N)-c2c(nn(C)c2C#N)CN(C)C(=O)c2ccccc21`
## Output 2.2

---

# system.name: ALK tyrosine kinase receptor (Homo sapiens, UniProt Q9UM73, L1196M)
# Sequence (Q9UM73 19-1620 L1196M limits assumed): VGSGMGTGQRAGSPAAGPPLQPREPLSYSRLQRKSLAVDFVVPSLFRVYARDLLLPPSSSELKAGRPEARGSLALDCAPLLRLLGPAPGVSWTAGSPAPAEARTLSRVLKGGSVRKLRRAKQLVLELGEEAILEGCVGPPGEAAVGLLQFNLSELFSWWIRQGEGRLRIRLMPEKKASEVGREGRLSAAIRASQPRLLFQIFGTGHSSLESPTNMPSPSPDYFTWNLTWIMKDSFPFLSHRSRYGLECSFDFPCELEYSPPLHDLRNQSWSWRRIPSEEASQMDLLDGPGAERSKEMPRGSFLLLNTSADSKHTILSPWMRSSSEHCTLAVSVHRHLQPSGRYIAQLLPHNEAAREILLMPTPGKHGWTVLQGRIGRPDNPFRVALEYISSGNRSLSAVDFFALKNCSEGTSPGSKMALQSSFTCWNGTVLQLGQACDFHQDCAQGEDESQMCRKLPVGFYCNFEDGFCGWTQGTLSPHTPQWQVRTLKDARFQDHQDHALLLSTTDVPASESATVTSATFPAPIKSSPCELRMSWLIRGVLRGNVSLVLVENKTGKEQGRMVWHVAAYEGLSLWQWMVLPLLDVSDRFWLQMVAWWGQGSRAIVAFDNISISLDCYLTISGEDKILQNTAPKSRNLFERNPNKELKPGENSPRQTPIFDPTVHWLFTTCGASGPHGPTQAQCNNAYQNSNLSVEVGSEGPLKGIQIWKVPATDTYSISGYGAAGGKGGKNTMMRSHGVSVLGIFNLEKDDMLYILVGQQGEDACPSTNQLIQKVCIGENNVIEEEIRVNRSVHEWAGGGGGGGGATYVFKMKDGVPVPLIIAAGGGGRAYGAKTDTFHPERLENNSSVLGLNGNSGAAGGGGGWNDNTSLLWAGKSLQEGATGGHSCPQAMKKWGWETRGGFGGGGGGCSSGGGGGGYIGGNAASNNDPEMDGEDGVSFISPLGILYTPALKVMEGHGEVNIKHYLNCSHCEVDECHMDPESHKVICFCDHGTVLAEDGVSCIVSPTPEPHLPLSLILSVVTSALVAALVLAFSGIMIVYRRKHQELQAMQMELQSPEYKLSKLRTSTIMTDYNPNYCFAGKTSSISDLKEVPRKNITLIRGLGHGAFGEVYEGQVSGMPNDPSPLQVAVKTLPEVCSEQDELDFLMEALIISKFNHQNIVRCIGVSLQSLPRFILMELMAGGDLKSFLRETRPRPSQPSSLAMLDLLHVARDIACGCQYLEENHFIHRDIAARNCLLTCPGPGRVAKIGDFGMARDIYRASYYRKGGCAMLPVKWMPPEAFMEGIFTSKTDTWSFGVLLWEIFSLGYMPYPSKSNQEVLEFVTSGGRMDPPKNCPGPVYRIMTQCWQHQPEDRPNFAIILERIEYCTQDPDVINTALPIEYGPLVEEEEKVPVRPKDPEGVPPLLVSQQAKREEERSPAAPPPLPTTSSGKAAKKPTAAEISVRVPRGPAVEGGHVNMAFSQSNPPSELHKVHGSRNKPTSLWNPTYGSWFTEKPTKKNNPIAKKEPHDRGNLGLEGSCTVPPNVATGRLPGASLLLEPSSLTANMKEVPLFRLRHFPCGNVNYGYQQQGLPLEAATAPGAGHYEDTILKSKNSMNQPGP
# assay.explanation: Inhibition of ALK L1196M mutant (unknown origin)
readout.kind: Ki (nM)
Give bare numbers, in nM.

## Input # get_value(readout= Ki, system= ALK tyrosine kinase receptor (Homo sapiens, UniProt Q9UM73, L1196M)) for `C[C@H]1Oc2cc(cnc2N)-c2c(nn(C)c2C#N)CN(C)C(=O)c2ccccc21`
## Output 4

---

# system.name: Aldo-keto reductase family 1 member B1 (Homo sapiens, UniProt P15121)
readout.kind: IC50 (nM)
One number for each entry, in nM.

## Input Data request, read-out IC50, for `O=C(O)COc1cc(Cl)ccc1C(=O)NCc1ccc(Br)cc1`
## Output 550
